Target: Peroxisome proliferator-activated receptor alpha (Homo sapiens)
Sequence (Q07869 whole entry): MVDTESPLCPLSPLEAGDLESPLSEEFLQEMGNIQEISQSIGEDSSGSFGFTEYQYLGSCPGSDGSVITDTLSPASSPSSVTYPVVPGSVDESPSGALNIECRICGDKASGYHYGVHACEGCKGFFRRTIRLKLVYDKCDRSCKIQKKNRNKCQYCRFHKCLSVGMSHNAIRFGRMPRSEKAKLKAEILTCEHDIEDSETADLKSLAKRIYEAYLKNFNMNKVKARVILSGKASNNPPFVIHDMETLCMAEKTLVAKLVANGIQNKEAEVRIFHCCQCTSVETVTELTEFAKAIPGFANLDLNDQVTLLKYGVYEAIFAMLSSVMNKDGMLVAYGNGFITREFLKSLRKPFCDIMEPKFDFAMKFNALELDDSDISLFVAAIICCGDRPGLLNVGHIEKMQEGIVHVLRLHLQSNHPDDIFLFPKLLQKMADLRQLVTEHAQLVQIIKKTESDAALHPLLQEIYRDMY
Experiment: Activity at human PPARalpha in CV1 cells
Hi there, I'd appreciate the recorded pEC50 for every entry that follows.
By convention, pEC50 is the negative base-10 log of a molar concentration.

Record "Cc1oc(-c2ccccc2)nc1CCOc1ccc(CCC(=O)O)c(CNC(=O)CCc2ccccc2)c1" . Reported pEC50: 5.55

Record "Cc1oc(-c2ccc(Oc3ccccc3)cc2)nc1CCOc1ccc(CCC(=O)O)c(CNC(=O)OC(C)C)c1" . Reported pEC50: 7.11

Record "Cc1oc(-c2ccc(-c3ccccc3)cc2)nc1CCOc1ccc(CCC(=O)O)c(CNC(=O)OC(C)C)c1" . Reported pEC50: 6.07

Record "Cc1oc(-c2ccc(-c3ccccc3)cc2)nc1CCOc1ccc(CCC(=O)O)c(CNC(=O)Oc2cnccn2)c1" . Reported pEC50: 6.70

Record "Cc1oc(-c2ccccc2)nc1CCOc1ccc(CCC(=O)O)c(CNC(=O)Oc2cnccn2)c1" . Reported pEC50: 7.46

Record "Cc1oc(-c2ccccc2)nc1CCOc1ccc(CCC(=O)O)c(CNC(=O)OCc2ccccc2)c1" . Reported pEC50: 6.29

Record "CC(C)(Oc1ccc(C(=O)c2ccc(Cl)cc2)cc1)C(=O)O" . Reported pEC50: 5.58

Record "Cc1sc(N2CCOCC2)nc1CCOc1ccc(CCC(=O)O)c(CNC(=O)OC(C)C)c1" . Reported pEC50: 6.01

Record "Cc1oc(-c2ccccc2)nc1CCOc1ccc(CCC(=O)O)c(CNS(=O)(=O)Cc2ccccc2)c1" . Reported pEC50: 5.53
